The values you see were collected from patent US20140023611A1.

# subject of test: human NaP2b (SLC34A2) (Homo sapiens)
# Construct: host or cells: HEK293
# Sequence (O95436 whole entry): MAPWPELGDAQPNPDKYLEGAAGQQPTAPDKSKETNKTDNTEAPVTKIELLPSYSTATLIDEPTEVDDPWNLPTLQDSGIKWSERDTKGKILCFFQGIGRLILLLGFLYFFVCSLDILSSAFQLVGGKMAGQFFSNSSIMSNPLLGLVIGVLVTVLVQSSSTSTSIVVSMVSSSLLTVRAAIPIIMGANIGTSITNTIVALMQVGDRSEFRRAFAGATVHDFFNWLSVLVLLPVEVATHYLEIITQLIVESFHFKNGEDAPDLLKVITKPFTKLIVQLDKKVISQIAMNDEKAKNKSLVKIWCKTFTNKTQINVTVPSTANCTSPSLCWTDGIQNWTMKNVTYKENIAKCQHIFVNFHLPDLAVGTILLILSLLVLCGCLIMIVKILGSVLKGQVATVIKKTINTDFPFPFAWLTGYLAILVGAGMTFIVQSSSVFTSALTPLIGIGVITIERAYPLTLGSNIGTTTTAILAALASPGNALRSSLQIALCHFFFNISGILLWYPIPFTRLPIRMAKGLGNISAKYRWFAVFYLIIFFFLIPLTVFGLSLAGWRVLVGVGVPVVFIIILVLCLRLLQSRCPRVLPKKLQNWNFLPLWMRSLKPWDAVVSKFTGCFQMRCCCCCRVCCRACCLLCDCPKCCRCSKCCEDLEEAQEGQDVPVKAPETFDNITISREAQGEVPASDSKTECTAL
# assay summary: Inhibition of NaP2b-mediated Pi (33P) uptake in transfected HEK293 cells, human NaP2b
# Type: cell-based
# run parameters: read-out: pIC50 range for human NaP2b (converted)
# Description: HEK293 cells were obtained from the American Type Culture collection and propagated per their instructions. […] After incubation for 3-30 minutes at room temperature, assay mixtures were removed, and the cells were washed twice with ice cold stop solution (137 mM sodium chloride, 14 mM Tris, pH 7.4). Cells were lysed by addition of 20 μL 0.1% Tween 80 followed by 100 μL scintillation fluid, and counted using a TopCount (Perkin Elmer). […]
Reported values of IC50 for individual entries
result type: IC50

[[record]]
compound = "CCN(CC)c1ccc(NC(=O)c2cccc(CSCCOCCOCCOCCOCCOCCOCCOCCOC)c2)c(-c2cc(C(=O)N[C@H]3CCCc4ccccc43)ccn2)c1 [Example 286]"
result_type = "IC50"
test_result = "< 1 µM"

[[record]]
compound = "CCN(CC)c1ccc(NC(=O)c2cccc(CSCCOCCOCCOCCOCCOCCOCCOCCOCCC(=O)O)c2)c(-c2cc(C(=O)N[C@H]3CCCc4ccccc43)ccn2)c1 [Example 161]"
result_type = "IC50"
test_result = "1 to 7.94 µM"

[[record]]
compound = "CN(CCN1CCOC[C@H]1C(=O)N(C)CCOCCOCCOCCC(=O)O)C(=O)c1cccc(C(=O)Nc2ccc(N3CCCCC3)cc2-c2cc(C(=O)N[C@H]3CCCc4ccccc43)ccn2)c1 [Example 243]"
result_type = "IC50"
test_result = "10 to 31.6 µM"

[[record]]
compound = "CCN(CC)c1ccc(NC(=O)c2cccc(CSCCOCCOCCOCCOCCOCCOCCOCCOCCC(=O)O)c2)c(-c2cc(C(=O)NCc3cccc(C(F)(F)F)c3)ccn2)c1 [Example 166]"
result_type = "IC50"
test_result = "1 to 7.94 µM"

[[record]]
compound = "O=C(O)CCOCCOCCOCCNC(=O)c1cccc(SCc2cccc(C(=O)Nc3ccc(N4CCCCC4)cc3-c3cc(C(=O)NCc4cccc(C(F)(F)F)c4)ccn3)c2)c1 [Example 10.1]"
result_type = "IC50"
test_result = "< 1 µM"

[[record]]
compound = "O=C(O)CCSCc1cccc(C(=O)Nc2ccc(N3CCCCC3)cc2-c2cc(NCc3ccccc3)ncn2)c1 [Example 3.7]"
result_type = "IC50"
test_result = "10 to 31.6 µM"

[[record]]
compound = "CCN(CC)c1ccc(NC(=O)c2cccc(CSc3cccc(CC(=O)N(C)CCOCCOCCOCCC(=O)O)c3)c2)c(-c2cc(C(=O)NCc3cccc(C(F)(F)F)c3)ccn2)c1 [Example 144]"
result_type = "IC50"
test_result = "< 1 µM"

[[record]]
compound = "CCN(CC)c1ccc(NC(=O)c2cccc(CCCOCCOCCOCCOCCC(=O)NC(CO)(CO)CO)c2)c(-c2cc(C(=O)N[C@H]3CCCc4ccccc43)ccn2)c1 [Example 283]"
result_type = "IC50"
test_result = "1 to 7.94 µM"

[[record]]
compound = "CCN(CC)c1ccc(NC(=O)c2cccc(CCCOCCOCCOCCOCCOCCOCCOCCOCCOC)c2)c(-c2cc(C(=O)NCc3cccc(C(F)(F)F)c3)ccn2)c1 [Example 269]"
result_type = "IC50"
test_result = "< 1 µM"

[[record]]
compound = "CCN(CC)c1ccc(NC(=O)c2cccc(COCCOCCOCCOCCOCCOCCO)c2)c(-c2cc(C(=O)NCc3cccc(C(F)(F)F)c3)ccn2)c1 [Example 168]"
result_type = "IC50"
test_result = "< 1 µM"

[[record]]
compound = "CCN(CC)c1ccc(NC(=O)c2cccc(CCCOCCOCCOCCOCCC(=O)NCCOCCOCCOCCOCCOCCOCCOCCOC)c2)c(-c2cc(C(=O)N[C@H]3CCCc4ccccc43)ccn2)c1 [Example 279]"
result_type = "IC50"
test_result = "1 to 7.94 µM"


* * *

# assay summary: Fecal recovery of orally administered compounds
# Assay type: in vivo, Sprague-Dawley rats
# run parameters: Structure (I) examples, Table 16; rat, oral gavage, feces collected until 48 hr after dosing
result type: % recovered in feces

[[record]]
molecule = "CCN(CC)c1ccc(NC(=O)c2cccc(CCCOCCOCCOCCOCCOCCOCCOCCOCCOCCC(=O)O)c2)c(-c2cc(C(=O)NCc3cccc(C(F)(F)F)c3)ccn2)c1 [Example 298]"
result_type = "% recovered in feces"
test_result = ">80%"

[[record]]
molecule = "CN(CCN1CCOCC1)C(=O)c1cccc(C(=O)Nc2ccc(N3CCCCC3)cc2-c2cc(C(=O)NCc3cccc(C(F)(F)F)c3)ccn2)c1 [Example 80]"
result_type = "% recovered in feces"
test_result = "20-80%"

[[record]]
molecule = "CCN(CC)c1ccc(NC(=O)c2cccc(CCCOCCOCCOCCOCCOCCC(=O)O)c2)c(-c2cc(C(=O)NCc3cccc(C(F)(F)F)c3)ccn2)c1 [Example 300]"
result_type = "% recovered in feces"
test_result = "20-80%"

[[record]]
molecule = "CCN(CC)c1ccc(NC(=O)c2cccc(CCCOCCOCCOCCOCCNS(=O)(=O)c3ccc(C(=O)N(CCOC)CCOCCOCCOCCOCCOCCOCCOC)cc3)c2)c(-c2cc(C(=O)NCc3cccc(C(F)(F)F)c3)ccn2)c1 [Example 272]"
result_type = "% recovered in feces"
test_result = ">80%"

[[record]]
molecule = "CCN(CC)c1ccc(NC(=O)c2cccc(CSCCOCCOCCOCCOCCOCCOCCOCCOC)c2)c(-c2cc(C(=O)N[C@H]3CCCc4ccccc43)ccn2)c1 [Example 286]"
result_type = "% recovered in feces"
test_result = "<20%"

[[record]]
molecule = "CCN(CC)c1ccc(NC(=O)c2cccc(CCCOCCOCCOCCOCCOCCOCCOCCOCCOC)c2)c(-c2cc(C(=O)N[C@H]3CCCc4ccccc43)ccn2)c1 [Example 261]"
result_type = "% recovered in feces"
test_result = "<20%"

[[record]]
molecule = "CCN(CC)c1ccc(NC(=O)c2cccc(CSCCOCCOCCOCCOCCOCCOCCOCCOCCC(=O)O)c2)c(-c2cc(C(=O)NCc3cccc(C(F)(F)F)c3)ccn2)c1 [Example 166]"
result_type = "% recovered in feces"
test_result = ">80%"

[[record]]
molecule = "CCN(CC)c1ccc(NC(=O)c2cccc(CSCCOCCOCCOCCOCCOCCOCCOCCOC)c2)c(-c2cc(C(=O)NCc3cccc(C(F)(F)F)c3)ccn2)c1 [Example 265]"
result_type = "% recovered in feces"
test_result = "<20%"

[[record]]
molecule = "CCN(CC)c1ccc(NC(=O)c2cccc(CCCOCCOCCOCCOCCNC(=O)c3cccc(CCCOCCOCCOCCOCCOCCOCCOCCOCCOC)c3)c2)c(-c2cc(C(=O)NCc3cccc(C(F)(F)F)c3)ccn2)c1 [Example 271]"
result_type = "% recovered in feces"
test_result = "20-80%"

[[record]]
molecule = "CCN(CC)c1ccc(NC(=O)c2cccc(CCCOCCOCCOCCOCCC(=O)O)c2)c(-c2cc(C(=O)NCc3cccc(C(F)(F)F)c3)ccn2)c1 [Example 251]"
result_type = "% recovered in feces"
test_result = ">80%"

[[record]]
molecule = "CCN(CC)c1ccc(NC(=O)c2cccc(CCCOCCOCCOCCOCCC(=O)N3CCN(C(=O)c4cccc(CCCOCCOCCOCCOCCOCCOCCOCCOCCOC)c4)CC3)c2)c(-c2cc(C(=O)NCc3cccc(C(F)(F)F)c3)ccn2)c1 [Example 262]"
result_type = "% recovered in feces"
test_result = "20-80%"


* * *

# subject of test: rat NaP2b (SLC34A2) (Rattus norvegicus, UniProt Q9JJ09)
# Construct: host or cells: HEK293
# Sequence (Q9JJ09 1-695): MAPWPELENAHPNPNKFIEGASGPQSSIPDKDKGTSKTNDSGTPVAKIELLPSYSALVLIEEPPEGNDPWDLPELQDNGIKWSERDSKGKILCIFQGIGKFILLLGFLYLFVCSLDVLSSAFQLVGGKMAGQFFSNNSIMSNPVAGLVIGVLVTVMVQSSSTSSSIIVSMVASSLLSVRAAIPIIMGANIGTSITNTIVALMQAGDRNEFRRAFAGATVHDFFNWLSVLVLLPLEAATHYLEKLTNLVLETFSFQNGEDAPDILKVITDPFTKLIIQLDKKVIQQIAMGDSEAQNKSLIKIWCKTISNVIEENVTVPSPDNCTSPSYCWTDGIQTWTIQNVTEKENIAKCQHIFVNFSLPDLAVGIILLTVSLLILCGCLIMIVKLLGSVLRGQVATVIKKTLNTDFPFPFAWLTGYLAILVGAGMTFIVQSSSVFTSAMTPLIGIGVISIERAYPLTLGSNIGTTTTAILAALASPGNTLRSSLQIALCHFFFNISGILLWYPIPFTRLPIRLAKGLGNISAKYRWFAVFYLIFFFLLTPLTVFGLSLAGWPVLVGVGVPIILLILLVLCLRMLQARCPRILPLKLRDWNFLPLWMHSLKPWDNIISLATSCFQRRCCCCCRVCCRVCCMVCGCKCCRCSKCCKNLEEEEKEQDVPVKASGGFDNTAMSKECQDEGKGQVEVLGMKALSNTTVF
# assay summary: Inhibition of NaP2b-mediated Pi (33P) uptake in transfected HEK293 cells, rat NaP2b
# Type: cell-based
# run parameters: 33P Pi uptake, 0.1 mM phosphate, value given as pIC50 range
pIC50: −log10 of the molar value.
result type: pIC50

[[record]]
smi = "O=C(O)CCSCc1cccc(C(=O)Nc2ccc(N3CCCCC3)cc2-c2nccc(C(=O)NCc3cccc(C(F)(F)F)c3)c2F)c1"
test_result = "4.50 to 5.00"

[[record]]
smi = "CCN(CC)c1ccc(NC(=O)c2cccc(CCCOCCOCCOCCOCCC(=O)N(C)CCOCCOCCOCCOCCOCCOCCOC)c2)c(-c2cc(C(=O)NCc3cccc(C(F)(F)F)c3)ccn2)c1"
test_result = "5.10 to 6.00"

[[record]]
smi = "CCN(CC)c1ccc(NC(=O)c2cccc(CSCCOCCOCCOCCOCCOCCOCCOCCOCCC(=O)O)c2)c(-c2cc(C(=O)NCc3cccc(C(F)(F)F)c3)ccn2)c1"
test_result = "5.10 to 6.00"

